Source listed as the MegaScale stability set (Tsuboyama et al. 2023).

B1: EEHEE_rd4_0003 (parent)
chain: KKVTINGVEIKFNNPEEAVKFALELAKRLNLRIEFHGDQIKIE

- Variants of: B1
- Assay info: folding stability dG (cDNA display proteolysis); higher = more stable
- Assay context: PBS, room temperature

Residues | folding stability dG / kcal/mol
KKVTINGVEIKFNNPEEAVKFALELAIRLNLRIEFHGDQIKIE [K27I] | 2.4
KKVTINGVEIKFNNPEEAVKFALELAKALNLRIEFHGDQIKIE [R28A] | 2.39
KKVTINGVEIKFNVPEEAVKFALELAKRLNLRIEFHGDQIKIE [N14V] | 2.36
KKVTINGVEIKFNNPEEAVKFALELAKRLNLVIEFHGDQIKIE [R32V] | 2.33
